- Tested on: P388
- ASSAY_COMMENT: In vivo antitumor activity against P388/0 (wild) leukemia in mice measured by increase in life span after 100 mg/kg compound administration
- Assay type: functional
- CONDITIONS: Mus musculus
Values of ILS at 100 mg/kg greater than or equal to 30% map to TRUE; values below map to FALSE.

compound="CS(=O)(=O)CC(OP(=O)(N(CCCl)CCCl)N(CCCl)CCCl)c1ccccc1 (configuration not stated)" class_name=FALSE
compound=CS(=O)(=O)CCOP(=O)(N(CCCl)CCCl)N(CCCl)CCCl class_name=FALSE
compound=O=P(NCCCl)(NCCCl)OCCS(=O)(=O)c1ccccc1 class_name=TRUE
compound=O=[N+]([O-])c1ccc(S(=O)(=O)CCOP(=O)(NCCCl)NCCCl)cc1 class_name=TRUE
compound=Cc1ccc(S(=O)(=O)CCOP(=O)(NCCCl)NCCCl)cc1 class_name=FALSE
compound=O=[N+]([O-])c1ccc(S(=O)(=O)CCOP(=O)(N(CCCl)CCCl)N(CCCl)CCCl)cc1 class_name=TRUE
compound="Cc1ccc(S(=O)(=O)CCOP(N)(=O)N(CCCl)CCCl)cc1 (configuration not stated)" class_name=FALSE
